Where do the numbers come from? From ChEMBL document CHEMBL1134336.

Molecular target: Prostaglandin G/H synthase 2 (Homo sapiens)
Sequence (whole entry): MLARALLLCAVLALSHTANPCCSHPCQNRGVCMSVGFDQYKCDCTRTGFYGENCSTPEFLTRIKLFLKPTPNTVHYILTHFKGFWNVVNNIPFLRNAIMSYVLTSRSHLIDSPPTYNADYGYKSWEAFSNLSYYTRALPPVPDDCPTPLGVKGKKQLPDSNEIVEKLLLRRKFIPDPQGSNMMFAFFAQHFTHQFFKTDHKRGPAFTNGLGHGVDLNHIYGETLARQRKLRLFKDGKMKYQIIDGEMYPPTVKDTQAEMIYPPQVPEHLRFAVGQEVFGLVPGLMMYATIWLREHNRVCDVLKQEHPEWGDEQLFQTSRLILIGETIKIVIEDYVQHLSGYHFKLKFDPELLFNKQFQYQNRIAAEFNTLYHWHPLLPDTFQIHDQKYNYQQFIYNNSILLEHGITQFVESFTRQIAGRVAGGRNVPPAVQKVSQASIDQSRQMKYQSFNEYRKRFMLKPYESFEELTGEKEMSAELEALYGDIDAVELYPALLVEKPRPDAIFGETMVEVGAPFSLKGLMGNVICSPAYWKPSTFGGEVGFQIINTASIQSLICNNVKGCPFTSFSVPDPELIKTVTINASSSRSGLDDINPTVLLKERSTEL
Assay: Percentage of inhibition of Prostaglandin G/H synthase 2 activity in human whole blood (HWB) at 1 uM
Type: tissue-based
Task for the reader: assign each of the following compounds its reported inhibition.

CS(=O)(=O)c1ccc(-c2nn3c4c(cnc3c2-c2ccc(F)cc2)C(=O)CCC4)cc1    30.4%
Cc1cnn2c(-c3ccc(F)cc3)c(-c3ccc(S(C)(=O)=O)cc3)nc2c1C    37.3%
Cc1ccc(-c2c(-c3ccc(S(N)(=O)=O)cc3)nn3c(C)c(C)cnc23)cc1    65.7%
CS(=O)(=O)c1ccc(-c2nn3c4c(cnc3c2-c2ccc(F)cc2)CCC4)cc1    48.3%
Cc1c(C(F)(F)F)cnc2c(-c3ccc(F)cc3)c(-c3ccc(S(C)(=O)=O)cc3)nn12    69%
Cc1cnc2c(-c3ccc(F)cc3)c(-c3ccc(S(C)(=O)=O)cc3)nn2c1CO    56.5%
Cc1cnc2c(-c3ccc(F)c(F)c3)c(-c3ccc(S(C)(=O)=O)cc3)nn2c1C    100%
CS(=O)(=O)c1ccc(-c2nn3c4c(cnc3c2-c2ccc(F)cc2)SCC4)cc1    14.8%

Please give inhibition, item by item, for the list that follows.
1. CS(=O)(=O)c1ccc(-c2nn3c4c(cnc3c2-c2ccc(F)cc2)CSC4)cc1
2. Cc1cnc2c(-c3ccc(F)cc3F)c(-c3ccc(S(C)(=O)=O)cc3)nn2c1C
3. CS(=O)(=O)c1ccc(-c2nn3c(C(F)(F)F)ccnc3c2-c2ccc(F)cc2)cc1
4. Cc1cnc2c(-c3ccc(F)c(F)c3)c(-c3ccc(S(N)(=O)=O)cc3)nn2c1C
5. CCCc1cnnc2c(-c3ccc(F)cc3)c(-c3ccc(S(C)(=O)=O)cc3)nn12
6. Cc1c(CO)cnc2c(-c3ccc(F)cc3)c(-c3ccc(S(C)(=O)=O)cc3)nn12
7. CCCCc1cnnc2c(-c3ccc(F)cc3)c(-c3ccc(S(C)(=O)=O)cc3)nn12

Result:
1. 25%
2. 61.1%
3. 3.5%
4. 97.2%
5. 43.9%
6. 26.1%
7. 0.9%

###

Target: Prostaglandin G/H synthase 2 (Homo sapiens) (UniProt P35354)
Sequence (whole entry): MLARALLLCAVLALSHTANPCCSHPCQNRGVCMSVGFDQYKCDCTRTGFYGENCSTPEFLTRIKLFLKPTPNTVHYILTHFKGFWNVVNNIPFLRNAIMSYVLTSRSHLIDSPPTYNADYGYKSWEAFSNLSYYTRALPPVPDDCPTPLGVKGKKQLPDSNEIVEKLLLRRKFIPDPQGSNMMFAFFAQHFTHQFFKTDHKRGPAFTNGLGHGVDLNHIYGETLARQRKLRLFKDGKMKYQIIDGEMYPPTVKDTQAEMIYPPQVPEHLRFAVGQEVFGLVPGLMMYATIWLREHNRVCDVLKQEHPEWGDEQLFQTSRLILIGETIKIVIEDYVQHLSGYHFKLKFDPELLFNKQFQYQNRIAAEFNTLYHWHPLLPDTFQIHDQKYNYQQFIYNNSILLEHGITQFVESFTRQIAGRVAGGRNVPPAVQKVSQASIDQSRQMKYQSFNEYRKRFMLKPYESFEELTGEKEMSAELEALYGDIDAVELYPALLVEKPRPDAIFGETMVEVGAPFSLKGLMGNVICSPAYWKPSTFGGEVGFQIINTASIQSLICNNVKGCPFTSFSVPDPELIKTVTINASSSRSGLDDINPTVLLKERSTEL
Test: Percentage inhibition of Prostaglandin G/H synthase 2 activity in human whole blood (HWB) at 10 uM
Format: tissue-based
Property Name: inhibition (%)
Give bare numbers, in %.

Reference set (10 entries):
CCc1cnc2c(-c3ccc(F)cc3)c(-c3ccc(S(C)(=O)=O)cc3)nn2c1C    100
CCCCc1cnnc2c(-c3ccc(F)cc3)c(-c3ccc(S(C)(=O)=O)cc3)nn12    89.7
CS(=O)(=O)c1ccc(-c2nn3c4c(cnc3c2-c2ccc(F)cc2)CCC4)cc1    90.4
Cc1nc2c(-c3ccc(F)cc3)c(-c3ccc(S(C)(=O)=O)cc3)nn2c(Cl)c1C    45.8
COc1cc(C)nc2c(-c3ccc(F)cc3)c(-c3ccc(S(C)(=O)=O)cc3)nn12    0
CC(=O)c1cnc2c(-c3ccc(F)cc3)c(-c3ccc(S(C)(=O)=O)cc3)nn2c1C    100
Cc1cc(C(=O)O)nc2c(-c3ccc(F)cc3)c(-c3ccc(S(C)(=O)=O)cc3)nn12    24.6
CS(=O)(=O)c1ccc(-c2nn3c4c(cnc3c2-c2ccc(F)cc2)C(=O)CC4)cc1    75
CCCc1c(C(=O)O)cnc2c(-c3ccc(F)cc3)c(-c3ccc(S(C)(=O)=O)cc3)nn12    0
CCCc1ccnc2c(-c3ccc(F)cc3)c(-c3ccc(S(C)(=O)=O)cc3)nn12    56.1

Please give inhibition, item by item, for the list that follows.
1. Cc1cnc2c(-c3ccc(F)c(F)c3)c(-c3ccc(S(N)(=O)=O)cc3)nn2c1C
2. Cc1c(CF)cnc2c(-c3ccc(F)cc3)c(-c3ccc(S(C)(=O)=O)cc3)nn12
3. CCCCc1cc(C)n2nc(-c3ccc(S(C)(=O)=O)cc3)c(-c3ccc(F)cc3)c2n1
4. Cc1ccc(-c2c(-c3ccc(S(N)(=O)=O)cc3)nn3c(C)c(C)cnc23)cc1
5. CS(=O)(=O)c1ccc(-c2nn3c(C(F)(F)F)ccnc3c2-c2ccc(F)cc2)cc1
6. Cc1cnc2c(-c3ccc(F)c(F)c3)c(-c3ccc(S(C)(=O)=O)cc3)nn2c1C
7. CCc1nnc2c(-c3ccc(F)cc3)c(-c3ccc(S(C)(=O)=O)cc3)nn2c1CC
8. Cc1ccn2c(-c3ccc(F)cc3)c(-c3ccc(S(C)(=O)=O)cc3)nc2n1

Result:
[100, 84.6, 100, 100, 90.6, 100, 100, 50.7]

Please give inhibition, item by item, for the list that follows.
1. CCOC(=O)c1cnc2c(-c3ccc(F)cc3)c(-c3ccc(S(C)(=O)=O)cc3)nn2c1C
2. Cc1cc2c(nc(-c3ccc(S(C)(=O)=O)cc3)n2-c2ccc(F)cc2)c(C)n1
3. CCCCc1cc(C)nc2c(-c3ccc(F)cc3)c(-c3ccc(S(C)(=O)=O)cc3)nn12
4. CS(=O)(=O)c1ccc(-c2nc3cnccn3c2-c2ccc(F)cc2)cc1
5. CS(=O)(=O)c1ccc(-c2nc3cnccc3n2-c2ccc(F)cc2)cc1
6. CS(=O)(=O)c1ccc(-c2nn3c4c(cnc3c2-c2ccc(F)cc2)CSC4)cc1
7. Cc1ccn2c(-c3ccc(F)cc3)c(-c3ccc(S(C)(=O)=O)cc3)nc2c1C
8. CS(=O)(=O)c1ccc(-c2nn3cccnc3c2-c2ccc(F)cc2)cc1

Result:
1. 100
2. 4.3
3. 58.3
4. 42.5
5. 21.3
6. 93.6
7. 66.7
8. 36.2

Please give inhibition, item by item, for the list that follows.
1. Cc1cc(O)n2nc(-c3ccc(S(C)(=O)=O)cc3)c(-c3ccc(F)cc3)c2n1
2. Cc1c(Br)cnc2c(-c3ccc(F)cc3)c(-c3ccc(S(C)(=O)=O)cc3)nn12
3. CS(=O)(=O)c1ccc(-c2nn3c(-c4ccccc4)ccnc3c2-c2ccc(F)cc2)cc1

Result:
21.9
100
90.4

###

biological target: Prostaglandin G/H synthase 2 (Homo sapiens) (UniProt P35354); assay: Percentage inhibition of Prostaglandin G/H synthase 2 activity in human whole blood (HWB) at 10 uM; type: tissue-based
Property Name: inhibition (%)
Answers are plain numbers, in %.

Reference set (8 entries):
CCCCc1nc(C)nc2c(-c3ccc(F)cc3)c(-c3ccc(S(C)(=O)=O)cc3)nn12    54.6
CS(=O)(=O)c1ccc(-c2nn3c4c(cnc3c2-c2ccc(F)cc2)SCC4)cc1    90.7
Cc1nnc2c(-c3ccc(F)cc3)c(-c3ccc(S(C)(=O)=O)cc3)nn2c1C    100
Cc1cc(Cl)n2nc(-c3ccc(S(C)(=O)=O)cc3)c(-c3ccc(F)cc3)c2n1    14.3
CCOC(=O)c1cc(C)n2nc(-c3ccc(S(C)(=O)=O)cc3)c(-c3ccc(F)cc3)c2n1    41
Cc1cnc2c(-c3ccc(F)cc3)c(-c3ccc(S(C)(=O)=O)cc3)nn2c1-c1ccccc1    12.3
CCCc1c(C)nnc2c(-c3ccc(F)cc3)c(-c3ccc(S(C)(=O)=O)cc3)nn12    95
Cc1cnn2c(-c3ccc(F)cc3)c(-c3ccc(S(C)(=O)=O)cc3)nc2c1C    100

Please give inhibition, item by item, for the list that follows.
1. CS(=O)(=O)c1ccc(-c2nn3c4c(cnc3c2-c2ccc(F)cc2)CCCC4)cc1
2. CS(=O)(=O)c1ccc(-c2nn3c4c(cnc3c2-c2ccc(F)cc2)C(=O)CCC4)cc1
3. Cc1cnc2c(-c3ccc(F)cc3)c(-c3ccc(S(N)(=O)=O)cc3)nn2c1C
4. Cc1cn2c(-c3ccc(F)cc3)c(-c3ccc(S(C)(=O)=O)cc3)nc2c(C)n1
5. CCc1nnc2c(-c3ccc(F)cc3)c(-c3ccc(S(C)(=O)=O)cc3)nn2c1C
6. CCCCc1nccn2c(-c3ccc(F)cc3)c(-c3ccc(S(C)(=O)=O)cc3)nc12
7. Cc1nc(C)n2nc(-c3ccc(S(C)(=O)=O)cc3)c(-c3ccc(F)cc3)c2n1

Result:
1: 100; 2: 95.3; 3: 99.1; 4: 82.4; 5: 100; 6: 0; 7: 90.3

Query: Answer with inhibition of Cc1cnc2c(-c3ccc(F)cc3)c(-c3ccc(S(C)(=O)=O)cc3)nn2c1CO measured for Prostaglandin G/H synthase 2 (Homo sapiens) (UniProt P35354).
Result: 100
